Taken from patent US12582695B2.

- experimental details: Solubility study
- Assay type: physicochemical
- experimental setup: water; read-out: Solubility Water
readout label: solubility (µg/mL)
Return type: number; implicit unit µg/mL.

Look at this compound and give its reported solubility. CC(C)C[C@H](NC(=O)[C@H](CCC(N)=O)NC(=O)[C@H](Cc1ccc(O)cc1)NC(=O)[C@H](CCC(N)=O)NC(=O)[C@H](Cc1ccccc1)NC(=O)[C@H](CC(=O)O)NC(=O)[C@H](CC(C)C)NC(=O)[C@H](Cc1ccc(O)cc1)NC(=O)[C@H](CO)NC(=O)[C@H](CC(C)C)NC(=O)[C@H](CCCCN)NC(=O)[C@H](CCC(N)=O)NC(=O)[C@H](Cc1ccc(O)cc1)NC(=O)[C@@H](N)CCCCN)C(=O)N[C@@H](CC(=O)O)C(=O)O [G7K-1] 380
